Where do these numbers come from? They come from paper PMC10397247.

- measured on: T1, P7SH
- T1 chain: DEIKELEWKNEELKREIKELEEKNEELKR
- measurement notes: two-hybrid library CCNG1;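 also: natural log of median RNA to DNA barcode read ratio; higher means stronger binding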
measured property: interaction score

A. DEIKELEEEIKELEWKNEELKRKNEELKR [P3SH]
B. DENEKLEEKIWELKRKNEELKREIKELEE [P5SH]
C. DKIEELKRKIEELKWENEELERENEELER [P4SH]
D. DEIKELEWKNEELKREIKELEEKNEELKR [P7SH]
E. DKNEELKREIKELEWENEELERKIEELKR [P6SH]
Prompt line: Put the entries in order of interaction score, starting with the largest number. The response must list the labels following the requested ordering.
Response line: E, A, D, B, C
